# System: PXR homodimer (NR concentration 270 nM)
# procedure_summary: PBM binding z-score (relative to random genomic background probes); higher = stronger binding; sequences stand for … in GC…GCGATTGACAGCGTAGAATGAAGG
# PBM binding z-score annotations
outcome_measure: PBM binding z-score

>>> print(df.to_string())
                       sequence_record  reported_result
 0  ATACCAAGGTGATCGAGAGGTCGTTGATACTAAC             1.12
 1  TCATATAGGTAATACAGGTGTAAGTCGGCATCTA            0.343
 2  CCTAGCACGCCAGGGTCACTCAAGCATTTCGCTT           -0.243
 3  TCTTGTAGATCAAAGGCTAAGAAAGCCGAAGCCT           -0.625
 4  GCTTACGTGTCAAAGGTTATAGCATGAATAGAAT           -0.204
 5  AGAACGAGGGCAATGAGTTGACAGCACGGGTGGC             2.68
 6  AGTCAAAGTTCATCCAGGTAACGTAAGATATGCT             8.19
 7  TCTTGTAGATCAACGGTTAAGAAAGCCGAAGCCT           -0.149
 8  CCTCGGAGGACAACAGCAGGTCAGAGCTGCCAGA           -0.253
 9  CTCGAAAGGTCGGTTGAGGTGAGTGTACGGATAA            0.527
10  AGAATGAGGTGACCAAAGATCAGGGAAACGCTTG            -0.16
11  CCAGACAGGTGAAAGGTAACCCAGTCTGGTACGC           -0.254

###

# System: LXRb:RXRa (NR concentration 270 nM, RXRa partner concentration 90 nM)
# procedure_summary: PBM binding z-score (relative to random genomic background probes); higher = stronger binding; sequences stand for … in GC…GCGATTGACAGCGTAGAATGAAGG
Returns one of Fulfilled or Not fulfilled; Fulfilled when PBM binding z-score is >= 0.2.

>>> print(df.to_string())
                       sequence_record          label
 0  ATCGAAAGGGCGAAGGTGAGTATACCCACCCGAA  Not fulfilled
 1  AGAATGAGGTTAAGACCAGGGAAACAGAATACAT      Fulfilled
 2  TCTGCTAGGTTAACGATGGTCAGCTAATCTGCTA  Not fulfilled
 3  TCTATAAGTTGAAGGGCAACCGACGAGTCCGTTT      Fulfilled
 4  GCTATTAGTTGGAAGGGCAACCGAATGATTCTCG  Not fulfilled
 5  TGAATGAGGGTAAAGATCAGGGAACGTGGCGTCG  Not fulfilled
 6  CCAGACAGGTGAGAAGGTAGCTCAGCCTCGATTA  Not fulfilled
 7  CGAACGAGGGCATGAGTTAATAGCAAATGCCGAT  Not fulfilled
 8  TCTTGCAGGCCAGAGGGTCACTCAAGAGGTACGG      Fulfilled
 9  ACAGAGAGGTGATGAAGGTAACTCAGGCTATCAT      Fulfilled
10  AGAATGAGGTGATACGTAGATCAGGGAAGAAAGT  Not fulfilled
